Molecular target: CDK2-cycline E (Homo sapiens, UniProt P24941)
Test: Kinase assay (radioactive phosphate incorporation), CDK2-cyclin E
Assay type: biochemical
Conditions: read-out: Kinase Inhibition pIC50 CDK2-cycline E (converted)
Description: Kinase assays. The compounds of the invention above were investigated for their ability to inhibit the enzymatic activity of various protein kinases (Table 2). This was achieved by measurement of incorporation of radioactive phosphate from ATP into appropriate polypeptide substrates. […] After washing 3 times with 75 mM aq orthophosphoric acid, plates were dried, scintillant added and incorporated radioactivity measured in a scintillation counter (TopCount, Packard Instruments, Pangbourne, Berks, UK). […]
Property Measured: IC50 (nM)
Please respond with the number in nM and leave the unit unwritten.

Below are worked cases with known answers.
CNc1nc(C)c(-c2ccnc(Nc3cccc(S(=O)(=O)NCCOC)c3)n2)s1
100
CC(=O)NCc1ccc(Nc2nccc(-c3sc(-c4cccnc4)nc3C)n2)cc1
2510
CNc1nc(C)c(-c2ccnc(Nc3cccc(S(=O)(=O)NC)c3)n2)s1
63.1
CC(=O)NCc1ccc(Nc2nccc(-c3sc(N)nc3C)n2)cc1
158

Looking for the measured IC50 of CCN(CC)S(=O)(=O)c1ccc(Nc2nccc(-c3sc(NC)nc3C)n2)cc1 , can you help? 1000
